Cited source: PubChem BioAssay

Assay: sensitizers of A549 cells to miR-34 induction, primary screen, imaging, A549 dox-inducible miR-34, nuclei and caspase counts (AID 1347080); note: test concentration not given here
Details: A549 miR-34 inducible, Hoechst nuclei count, 48 h; measured here: total cells with miR-34 induction; stronger effect = lower value
Cut-off 9000 on cell count: below means yes, at or above means no.

Request: hey, is cell count for C=C1C[C@]23C[C@@]1(O)CC[C@H]2[C@@]12C=C[C@H](O)[C@@](C)(C(=O)O1)[C@H]2[C@@H]3C(=O)O lower than 9000 or not?
Response: yes

Request: hey, is cell count for O=C(O)Cc1nn(Cc2ccc(Br)cc2F)c(=O)c2ccccc12 lower than 9000 or not?
Response: yes

Request: hey, is cell count for CC(=O)c1ccc2c(c1)N(CCCN1CCC(CCO)CC1)c1ccccc1S2 lower than 9000 or not?
Response: yes

Request: hey, is cell count for CC[C@@]1(O)C[C@H](O[C@H]2C[C@H](N(C)C)[C@H](O[C@H]3C[C@H](O)[C@H](O[C@H]4CCC(=O)[C@H](C)O4)[C@H](C)O3)[C@H](C)O2)c2c(cc3c(c2O)C(=O)c2c(O)cccc2C3=O)[C@H]1C(=O)OC lower than 9000 or not?
Response: yes

Request: hey, is cell count for C=C[C@H]1CN2CCC1C[C@@H]2[C@@H](O)c1ccnc2ccc(OC)cc12 (some centres undefined) lower than 9000 or not?
Response: no

Request: hey, is cell count for CCCn1cnc2c1c(=O)n(CCCCC(C)=O)c(=O)n2C lower than 9000 or not?
Response: no
